SUBJECT_OF_TEST: F508delCFTR (Homo sapiens, UniProt P13569, DEL508-508)
Construct: expressed in transfected cells; host or cells: CFBE41o- human lung-derived epithelial cells (CFBE41o-F508delCFTR-HRP), doxycycline-inducible
Sequence (P13569 with tags, fused parts or gaps DEL508-508): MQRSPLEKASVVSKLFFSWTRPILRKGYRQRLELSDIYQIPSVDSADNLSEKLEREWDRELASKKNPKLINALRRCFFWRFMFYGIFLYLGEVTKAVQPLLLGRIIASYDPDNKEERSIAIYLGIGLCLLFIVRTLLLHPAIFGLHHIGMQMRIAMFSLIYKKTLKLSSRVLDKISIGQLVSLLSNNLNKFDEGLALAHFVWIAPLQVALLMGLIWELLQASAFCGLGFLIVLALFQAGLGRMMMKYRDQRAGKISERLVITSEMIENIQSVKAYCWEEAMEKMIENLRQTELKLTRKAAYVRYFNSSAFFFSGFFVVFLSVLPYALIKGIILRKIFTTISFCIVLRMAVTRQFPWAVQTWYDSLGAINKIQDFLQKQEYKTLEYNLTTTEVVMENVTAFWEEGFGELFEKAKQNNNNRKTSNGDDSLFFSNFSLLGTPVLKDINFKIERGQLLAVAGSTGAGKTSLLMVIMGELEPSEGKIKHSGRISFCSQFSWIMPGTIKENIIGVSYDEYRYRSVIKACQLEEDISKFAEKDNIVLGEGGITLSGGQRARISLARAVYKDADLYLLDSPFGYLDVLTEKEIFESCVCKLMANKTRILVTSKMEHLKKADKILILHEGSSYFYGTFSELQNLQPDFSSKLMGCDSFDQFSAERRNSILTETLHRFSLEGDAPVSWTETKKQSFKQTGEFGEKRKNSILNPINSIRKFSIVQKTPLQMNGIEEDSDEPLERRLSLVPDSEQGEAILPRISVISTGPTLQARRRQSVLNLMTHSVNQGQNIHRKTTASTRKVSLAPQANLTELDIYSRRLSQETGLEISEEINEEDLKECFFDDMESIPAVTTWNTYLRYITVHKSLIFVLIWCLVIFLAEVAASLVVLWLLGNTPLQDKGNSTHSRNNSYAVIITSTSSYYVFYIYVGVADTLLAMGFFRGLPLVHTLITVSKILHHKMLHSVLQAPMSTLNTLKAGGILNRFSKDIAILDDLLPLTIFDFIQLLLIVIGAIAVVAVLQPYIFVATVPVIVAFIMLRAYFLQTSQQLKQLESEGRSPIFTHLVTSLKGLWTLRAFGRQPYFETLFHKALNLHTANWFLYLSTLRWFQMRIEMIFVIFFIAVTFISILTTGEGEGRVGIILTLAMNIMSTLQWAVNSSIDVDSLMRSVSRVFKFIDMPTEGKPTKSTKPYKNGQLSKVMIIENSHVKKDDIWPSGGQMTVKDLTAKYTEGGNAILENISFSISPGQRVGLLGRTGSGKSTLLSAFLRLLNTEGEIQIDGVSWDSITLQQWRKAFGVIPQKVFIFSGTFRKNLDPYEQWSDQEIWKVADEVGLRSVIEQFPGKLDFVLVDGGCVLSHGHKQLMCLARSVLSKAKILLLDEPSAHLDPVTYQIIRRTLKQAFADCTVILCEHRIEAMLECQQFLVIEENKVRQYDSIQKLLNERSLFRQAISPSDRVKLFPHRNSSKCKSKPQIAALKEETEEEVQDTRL
PROTOCOL: Cell Surface Expression-Horse Radish Peroxidase (CSE-HRP) assay, test compound with co-corrector;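 note: percent of 2 µM positive control corrector over DMSO; co-corrector is that same compound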
Format: cell-based
CONDITION_NOTES: maximum at any tested concentration, normalized to positive control, with 2 μM co-corrector
OBSERVABLE: Maximum % activity (with co-corrector)

CCC1(C(=O)NS(=O)(=O)c2cccc3cnn(C)c23)CCc2c(Cl)cccc21 (centres unmarked) : +++ (≥350)
COc1ccc(Br)c2c1C(C(=O)NS(=O)(=O)c1ccc(F)c3ncccc13)CC2 (centres unmarked) : +++ (≥350)
COc1ccc(Br)c2c1CCC[C@@H]2C(=O)NS(=O)(=O)c1cccc2ccccc12 : +++ (≥350)

###

Consider the following compounds; for each one, report its Emax.
SUBJECT_OF_TEST: F508delCFTR (Homo sapiens, UniProt P13569, DEL508-508)
Construct: expressed in transfected cells; host or cells: CFBE41o- human lung-derived epithelial cells (CFBE41o-F508delCFTR-HRP), doxycycline-inducible
PROTOCOL: Cell Surface Expression-Horse Radish Peroxidase (CSE-HRP) assay, test compound without co-corrector;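 note: percent of on-plate 2 µM positive control corrector response over DMSO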
Assay type: cell-based
CONDITION_NOTES: maximum at any tested concentration, normalized to positive control, without co-corrector

Consider the following items and state reported Emax for each.
1. Cc1ccccc1S(=O)(=O)NC(=O)C1CCc2c(-c3ccc(N4CCN(C)CC4)nc3)cccc21 (centres unmarked)
2. COc1ccc(Br)c2c1C(C(=O)NS(=O)(=O)c1cccc3nc(C(C)C)ccc13)CC2 (centres unmarked)
3. COc1cccc2c1CC(C(=O)NS(=O)(=O)c1ccccc1C)CC2 (centres unmarked)

Reply:
1. < 50%
2. ≥ 150%
3. < 50%

Count: 4. Required value per item: Emax.
1. COc1ccc(C2CCC2)c2c1C(C(=O)NS(=O)(=O)c1cccc3ncccc13)C2 (centres unmarked)
2. COc1cccc2c1CC[C@]2(C)C(=O)NS(=O)(=O)c1cccc2ccccc12
3. Cc1nn(C)c(C)c1S(=O)(=O)NC(=O)C1CCc2c(Cl)cccc21 (centres unmarked)
4. COc1ccc(-c2cccc(OC(F)(F)F)c2)c2c1C(C(=O)NS(=O)(=O)c1cccc3ccccc13)CCC2 (centres unmarked)

Reply:
["≥ 150%", "50 to 150%", "< 50%", "≥ 150%"]

Please report Emax for every entry that follows.
1. CCC1(C(=O)NS(=O)(=O)N2CCCc3ccccc32)CCc2c(Cl)cccc21 (centres unmarked)
2. COc1cccc2c1CCC2C(=O)NS(=O)(=O)c1cccnc1C#N (centres unmarked)
3. CCC1(C(=O)NS(=O)(=O)c2cccc3c2OCCO3)CCc2c(Cl)cccc21 (centres unmarked)
4. CCN1CCC[C@H]1CNC(=O)c1cc(S(=O)(=O)NC(=O)C2CCc3c(OC)cccc32)ccc1OC (some centres unmarked)
5. CC[C@]1(C(=O)NS(=O)(=O)c2cccc3ccccc23)CCc2c(Cl)cccc21
6. Cc1ccccc1S(=O)(=O)NC(=O)C1CCc2c(-c3ccccc3)cccc21 (centres unmarked)
7. COc1cccc2c1CCC[C@H]2C(=O)NS(=O)(=O)c1cccc2ccccc12

Reply:
1: < 50%; 2: < 50%; 3: < 50%; 4: < 50%; 5: 50 to 150%; 6: 50 to 150%; 7: ≥ 150%

Report Emax for each item below.
1. COC(=O)c1cccc2c(S(=O)(=O)NC(=O)C3CCc4c(Br)ccc(OC)c43)cccc12 (centres unmarked)
2. COc1ncc(C2CCC2)c2c1[C@H](C(=O)NS(=O)(=O)c1cccc3ccccc13)CCC2
3. O=C(NS(=O)(=O)c1cccc2ccccc12)C1CCCc2c(OCc3ccccc3)ccc(Br)c21 (centres unmarked)

Reply:
1. ≥ 150%
2. ≥ 150%
3. 50 to 150%

###

SUBJECT_OF_TEST: F508delCFTR (Homo sapiens, UniProt P13569, DEL508-508)
Construct: expressed in transfected cells; host or cells: CFBE41o- human lung-derived epithelial cells (CFBE41o-F508delCFTR-HRP), doxycycline-inducible
PROTOCOL: Cell Surface Expression-Horse Radish Peroxidase (CSE-HRP) assay, test compound with co-corrector;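 note: percent of 2 µM positive control corrector over DMSO; co-corrector is that same compound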
Assay type: cell-based
CONDITION_NOTES: maximum at any tested concentration, normalized to positive control, with 2 μM co-corrector
OBSERVABLE: Maximum % activity (with co-corrector)

Example results:
COc1ncc(Br)c2c1[C@@H](C(=O)NS(=O)(=O)c1cccc3ccccc13)CCC2 : +++ (≥350)
COc1ccc(C2CCCO2)c2c1C(C(=O)NS(=O)(=O)c1cccc3ccccc13)CC2 (stereo not shown) : +++ (≥350)
CCC1(C(=O)NS(=O)(=O)c2cccc3c2OC(F)(F)O3)CCc2c(Cl)cccc21 (stereo not shown) : ++ (≥150 and <350)
COc1ccc(C2CCC2)c2c1[C@H](C(=O)NS(=O)(=O)c1cccc3ncc(C)n13)C2 : +++ (≥350)
COc1cccc2c1CCCC2(Cc1ccccc1)C(=O)NS(=O)(=O)c1cccc2ccccc12 (stereo not shown) : +++ (≥350)

State the recorded Maximum % activity (with co-corrector) for every item in the following list.
1. COc1ccc(C2CCC2)c2c1CCC[C@@H]2C(=O)NS(=O)(=O)c1cccc2ccccc12
2. COc1cccc2c1CCCC2C(=O)NS(=O)(=O)c1ccccc1C (stereo not shown)
3. O=C(NS(=O)(=O)c1cccc2ccccc12)C1(CN2CCCC2)CCc2c(Cl)cccc21 (stereo not shown)

Reply:
1: +++ (≥350); 2: ++ (≥150 and <350); 3: ++ (≥150 and <350)

Please supply Maximum % activity (with co-corrector) for each of the following items, keeping them in order.
1. COc1ccc(C2CCC2)c2c1[C@H](C(=O)NS(=O)(=O)c1cccc3nc(C)ccc13)CC2
2. COc1cccc2c1CCC2C(=O)NS(=O)(=O)c1cc(C)c(N)cc1Cl (stereo not shown)
3. COc1cccc2c1CCC2C(=O)NS(=O)(=O)c1c(F)cccc1F (stereo not shown)
4. CCC1(C(=O)NS(=O)(=O)c2cccc3ccccc23)CCc2c(Cl)cccc21 (stereo not shown)
5. O=C(NS(=O)(=O)c1cccc2ccccc12)C1CCCc2c(O)ccc(Br)c21 (stereo not shown)

Reply:
["+++ (≥350)", "++ (≥150 and <350)", "++ (≥150 and <350)", "+++ (≥350)", "++ (≥150 and <350)"]

Below is a list of molecules. For each, state its recorded Maximum % activity (with co-corrector).
1. COc1ccc(-c2cccc3c2OC(F)(F)O3)c2c1CCCC2C(=O)NS(=O)(=O)c1cccc2ccccc12 (stereo not shown)
2. COc1ccc(Br)c2c1CC[C@H]2C(=O)NS(=O)(=O)c1cccc2ccccc12
3. CCC1(C(=O)NS(=O)(=O)c2cc(C)ccc2C(C)C)CCc2c(Cl)cccc21 (stereo not shown)

Reply:
+++ (≥350)
+++ (≥350)
++ (≥150 and <350)

###

SUBJECT_OF_TEST: F508delCFTR (Homo sapiens, UniProt P13569, DEL508-508)
Construct: expressed in transfected cells; host or cells: CFBE41o- human lung-derived epithelial cells (CFBE41o-F508delCFTR-HRP), doxycycline-inducible
PROTOCOL: Cell Surface Expression-Horse Radish Peroxidase (CSE-HRP) assay, test compound with co-corrector;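 note: percent of 2 µM positive control corrector over DMSO; co-corrector is that same compound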
Format: cell-based
CONDITION_NOTES: maximum at any tested concentration, normalized to positive control, with 2 μM co-corrector
OBSERVABLE: Maximum % activity (with co-corrector)

O=C(NS(=O)(=O)c1cccc2ccccc12)C1CCc2c(Br)ccc(OC(F)F)c21 (centres unmarked) [Example I-58] : +++ (≥350)
COc1ccc2c(c1)CCC2C(=O)NS(=O)(=O)c1ccccc1C (centres unmarked) [III-9] : + (<150)
COc1cccc2c1CCC2C(=O)NS(=O)(=O)c1cc(F)ccc1F (centres unmarked) [III-74] : + (<150)
COc1cccc2c1CC(C(=O)NS(=O)(=O)c1cccc3ccccc13)C2 (centres unmarked) [II-48] : +++ (≥350)

###

SUBJECT_OF_TEST: F508delCFTR (Homo sapiens, UniProt P13569, DEL508-508)
Construct: expressed in transfected cells; host or cells: CFBE41o- human lung-derived epithelial cells (CFBE41o-F508delCFTR-HRP), doxycycline-inducible
PROTOCOL: Cell Surface Expression-Horse Radish Peroxidase (CSE-HRP) assay, test compound without co-corrector;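 note: percent of on-plate 2 µM positive control corrector response over DMSO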
Type: cell-based
CONDITION_NOTES: maximum at any tested concentration, normalized to positive control, without co-corrector
OBSERVABLE: Emax

As a guide, the following entries are already answered.
COCc1ccc(OC)c2c1CCC2C(=O)NS(=O)(=O)c1cccc2ccccc12 (centres unmarked) : ≥ 150%
COc1ccc2c(c1)[C@@](C)(C(=O)NS(=O)(=O)c1ccccc1C)CC2 : < 50%
COc1cccc2c1CCCC2C(=O)NS(=O)(=O)c1ccccc1C (centres unmarked) : 50 to 150%
COc1ccc(Cl)c2c1C(C(=O)NS(=O)(=O)c1cccc3ccccc13)CCC2 (centres unmarked) : ≥ 150%

// below: Emax requested for another compound
Query: Return value of Emax for input COc1cc2c(cc1OC)C(C(=O)NS(=O)(=O)c1ccccc1C)CCC2 (centres unmarked) , no commentary.
Reply: < 50%
